Molecular target: Caspase-6 (Homo sapiens, UniProt P55212)
Test: inhibition of CASP6 peptide cleavage – biochemical, VEID-R110 fluorescence, cherry-pick, dose response (AID 720632)
Active and inactive are the calls of the source.
Reported AC50 by item:
MEASUREMENT NAME: AC50

compound=CCOC(=O)c1c(C)oc2c1c(/C=N/Cc1ccccn1)c(O)c1ccccc12 obs_value="11 µM (active)"
compound=COc1cc(-c2ccc(Nc3ccccc3C(=O)O)c(OC)c2)ccc1Nc1ccccc1C(=O)O obs_value="4.6 µM (active)"
compound=COc1ccc(CC(=O)Nc2ncc([N+](=O)[O-])s2)cc1OC obs_value="2.89 µM (active)"
compound=COc1ccc(OC)c(Nc2cc3ccccc3c(O)n2)c1 obs_value="2.44 µM (active)"
compound=O=C(COC(=O)c1ccc([N+](=O)[O-])o1)NCCc1ccccc1 obs_value="42.2 µM (active)"
compound="CC(NC(=O)CN1c2cccc3cccc(c23)S1(=O)=O)c1ccc(S(N)(=O)=O)cc1 (stereo unspecified)" obs_value="22.4 µM (active)"

----------
Target: Genome polyprotein (dengue virus type 2)
Experiment: flavivirus cap methylation enzyme inhibition – biochemical, confirmation dose response, primary screen (AID 588689)
Type: functional
The source made the active and inactive calls.
IC50 values, listed per item
MEASUREMENT NAME: IC50

compound="Cc1ccc(C2C(C(=O)c3ccc(Br)cc3)=C(O)C(=O)N2Cc2ccco2)o1 (centres undefined)" obs_value="> 100 µM (active)"
compound=O=C(O)c1ccc(NC2=C/C(=N/S(=O)(=O)c3ccccc3)c3ccccc3C2=O)cc1 obs_value="17.1 µM (active)"
compound=CCc1ccc(CNc2ccc(O)cc2)cc1 obs_value="> 100 µM (active)"
compound=O=C(NNc1cc(Br)c(O)c(Br)c1)c1ccccc1 obs_value="63.2 µM (active)"

----------
Lab note: AC50 readings collected with Cytochrome P450 2C9 (Homo sapiens) for the following compounds.
Sequence (P11712 whole entry): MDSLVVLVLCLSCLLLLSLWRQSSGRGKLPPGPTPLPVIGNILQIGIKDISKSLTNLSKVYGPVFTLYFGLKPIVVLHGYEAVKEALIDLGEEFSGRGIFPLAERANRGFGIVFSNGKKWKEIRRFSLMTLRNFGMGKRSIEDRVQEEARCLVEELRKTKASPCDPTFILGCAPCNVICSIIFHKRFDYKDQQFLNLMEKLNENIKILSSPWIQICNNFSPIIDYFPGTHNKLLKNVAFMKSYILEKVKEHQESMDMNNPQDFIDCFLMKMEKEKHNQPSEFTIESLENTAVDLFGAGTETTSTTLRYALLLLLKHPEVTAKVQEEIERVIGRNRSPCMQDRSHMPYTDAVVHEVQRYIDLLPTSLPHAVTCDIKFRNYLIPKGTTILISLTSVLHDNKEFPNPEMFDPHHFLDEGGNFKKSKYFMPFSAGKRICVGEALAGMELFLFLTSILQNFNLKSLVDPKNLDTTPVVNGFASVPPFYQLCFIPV
MEASUREMENT NAME: AC50

compound="Cc1ccc(C)c(NC(=O)C2(C)CC3c4ccccc4C2c2ccccc23)c1 (stereo not given)" obs_value="10 µM (inconclusive)"
compound=Cc1nc2cnc(N3CCNCC3)nc2n(Cc2ccc(F)cc2)c1=O obs_value="25.1 µM (inconclusive)"
compound=O=C(C[n+]1cccc(NC(=O)c2ccccc2)c1)c1ccc(NC(=O)c2ccccc2)cc1 obs_value="5.62 µM (inconclusive)"
compound=O=C(c1ccc2ncsc2c1)N1CCN(c2ccc(O)cc2)CC1 obs_value="1.78 µM (inconclusive)"
compound=CC(C)N(CCNC(=O)C1CCN(S(=O)(=O)N2CCOCC2)CC1)Cc1ccccc1 obs_value="20 µM (inconclusive)"
compound=C/C(=N/CCN1CCN(C(=S)Nc2ccccc2)CC1)C1=C(O)CC(C)(C)CC1=O obs_value="28.2 µM (inconclusive)"
compound=COc1ccc(C(=O)Nc2cc(OC)cc(OC)c2)cc1 obs_value="22.4 µM (inconclusive)"
compound=N#C[C@H](Cc1ccc(O)cc1)c1ccc(O)cc1 obs_value="39.8 µM (inconclusive)"
compound=CC(C)(C)c1cc(Br)c(O)c(CN(Cc2cc(C(C)(C)C)cc(Br)c2O)C2CCCCC2)c1 obs_value="3.16 µM (inconclusive)"
compound="CC(C)CCn1nnnc1C(c1ccc(F)cc1)N1CCN(C(=O)c2ccco2)CC1 (stereo not given)" obs_value="11.2 µM (inconclusive)"

----------
Target: Corticotropin-releasing factor receptor 2/Corticotropin-releasing factor-binding protein (Homo sapiens, UniProt P24387+Q13324)
Sequence (Q13324 whole entry): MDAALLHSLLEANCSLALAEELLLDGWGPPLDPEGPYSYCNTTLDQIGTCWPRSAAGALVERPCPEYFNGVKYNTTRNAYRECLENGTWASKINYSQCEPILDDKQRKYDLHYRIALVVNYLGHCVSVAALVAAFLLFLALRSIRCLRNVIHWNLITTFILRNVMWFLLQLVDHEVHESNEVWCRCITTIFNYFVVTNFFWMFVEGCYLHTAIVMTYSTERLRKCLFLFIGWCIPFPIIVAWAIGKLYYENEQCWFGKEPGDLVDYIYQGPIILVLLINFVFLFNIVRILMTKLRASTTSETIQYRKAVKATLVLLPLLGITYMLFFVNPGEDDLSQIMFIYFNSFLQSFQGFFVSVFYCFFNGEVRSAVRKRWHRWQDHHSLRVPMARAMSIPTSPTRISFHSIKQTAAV
Sequence (P24387 whole entry): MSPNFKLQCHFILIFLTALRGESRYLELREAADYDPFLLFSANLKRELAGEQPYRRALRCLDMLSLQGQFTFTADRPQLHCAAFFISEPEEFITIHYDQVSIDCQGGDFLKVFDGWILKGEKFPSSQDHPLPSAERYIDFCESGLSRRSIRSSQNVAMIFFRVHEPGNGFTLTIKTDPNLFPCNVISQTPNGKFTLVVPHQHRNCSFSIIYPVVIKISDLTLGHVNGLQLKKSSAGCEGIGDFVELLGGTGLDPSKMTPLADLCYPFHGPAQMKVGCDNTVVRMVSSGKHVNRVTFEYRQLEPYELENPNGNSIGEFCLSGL
Assay: activators of CRF receptor 2 with binding protein – uHTS hits, confirmation (AID 602473)
Assay type: functional
Conditions: read-out: EC50_Mean
Activity calls are given as the source filed them.
Outcomes: active, inactive

molecule=CCOc1ccc2nc(/N=C/c3nc(-c4ccc(Br)cc4)oc3O)sc2c1 assigned_label=inactive
molecule="Cc1ccc(N2C(=O)C3C(C(=O)c4ccccc4)=NN(c4ccccc4)C3C2=O)cc1 (stereo unspecified)" assigned_label=active
molecule=COC(=O)C1CCN(C(=O)COC(=O)c2cc([N+](=O)[O-])ccc2N2CCOCC2)CC1 assigned_label=inactive
molecule="O=C(O)CC(SCC(=O)Nc1ccc(Br)cc1)C(=O)O (stereo unspecified)" assigned_label=inactive
molecule=Cc1ccc(C(=O)C=Cc2cccc(C)c2)cc1 assigned_label=inactive
molecule=CCN(CC)C(=O)/C(=C/c1cn(S(=O)(=O)N(C)C)c2ccccc12)NC(=O)c1ccc(OC)cc1 assigned_label=inactive

----------
Biological target: Steroidogenic factor 1 (Homo sapiens, UniProt Q13285)
Sequence (Q13285 whole entry): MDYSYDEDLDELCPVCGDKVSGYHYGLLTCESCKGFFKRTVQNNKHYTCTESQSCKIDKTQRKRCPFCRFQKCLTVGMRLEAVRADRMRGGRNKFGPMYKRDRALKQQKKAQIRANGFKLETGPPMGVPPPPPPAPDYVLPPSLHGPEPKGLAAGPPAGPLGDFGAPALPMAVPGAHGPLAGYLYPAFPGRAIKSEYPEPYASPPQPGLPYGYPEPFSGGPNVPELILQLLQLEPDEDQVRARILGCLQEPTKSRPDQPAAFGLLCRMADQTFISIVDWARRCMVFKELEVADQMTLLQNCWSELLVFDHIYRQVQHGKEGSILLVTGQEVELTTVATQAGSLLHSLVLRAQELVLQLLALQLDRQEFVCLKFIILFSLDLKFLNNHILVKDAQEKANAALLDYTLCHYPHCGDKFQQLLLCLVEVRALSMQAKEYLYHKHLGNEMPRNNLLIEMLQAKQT
Assay: Counterscreen for inverse agonists of the liver receptor homolog-1 (LRH-1; NR5A2): Luminescence-based cell-based high throughput dose response assay to identify inverse agonists of the Steroidogenic Factor 1 Nuclear Receptor (SF1; NR5A1).
Assay type: functional
Active and inactive are the calls of the source.
Possible outcomes: 1.0 (active), 0.0 (inactive)

compound=Cc1cc(C)c2c(O)nc(SCC(=O)Nc3ccc(Br)cc3)nc2n1 assigned_label=0.0
compound=Cc1cc(C)c2nc(NC(=O)c3ccc([N+](=O)[O-])o3)sc2c1 assigned_label=1.0
compound=Cc1cc(OCC(=O)N2CCC(O)CC2)c2c(C)cc(=O)oc2c1 assigned_label=0.0
compound="CC1CC(C)CN(c2cc(N(C)CCO)c([N+](=O)[O-])c3nonc23)C1 (stereo unspecified)" assigned_label=1.0
compound=O=C(NCc1ccco1)c1nn(-c2ccccc2)c(=O)c2ccccc12 assigned_label=1.0
compound=O=C(CCl)NCCN1C(=O)S/C(=C\c2cccnc2)C1=O assigned_label=1.0

----------
Target: RNA-binding protein pos-1 (Caenorhabditis elegans, UniProt G5EF15)
Sequence (G5EF15 whole entry): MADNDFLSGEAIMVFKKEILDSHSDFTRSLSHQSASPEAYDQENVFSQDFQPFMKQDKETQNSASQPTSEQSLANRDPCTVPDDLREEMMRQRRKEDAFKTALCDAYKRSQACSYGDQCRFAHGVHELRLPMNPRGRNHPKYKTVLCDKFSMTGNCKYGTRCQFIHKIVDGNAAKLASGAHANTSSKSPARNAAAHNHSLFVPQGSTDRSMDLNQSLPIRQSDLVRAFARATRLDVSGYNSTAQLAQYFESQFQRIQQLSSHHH
Assay: disruptors of C. elegans POS-1 RNA interaction – biochemical, fluorescence polarization, dose response (AID 1964);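 note: purified POS-1 fused to maltose binding protein made in E. coli; potency of compounds blocking POS-1 binding to fluorescent RNA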
Activity calls are given as the source filed them.
MEASUREMENT NAME: EC50

molecule=COc1ccc(N2C(=O)/C(=C/c3ccc(C)o3)C(=O)NC2=S)cc1 obs_value="> 300 µM (not active)"
molecule=COc1cccc(N2C(=O)/C(=C/c3ccc(C)o3)C(=O)NC2=S)c1 obs_value="> 300 µM (not active)"
molecule="COc1ccccc1N1CC(C(=O)Nc2nnc(SCC(=O)NC(C)C)s2)CC1=O (centres undefined)" obs_value="> 300 µM (not active)"
molecule=O=C(CCl)NCCN1C(=O)S/C(=C\c2cccnc2)C1=O obs_value="> 300 µM (not active)"
molecule=CN1C(=O)C(=Cc2c[nH]c3ccc(Br)cc23)C(=O)N(C)C1=O obs_value="> 300 µM (not active)"
molecule=COc1ccc2nc3ccccc3nc2c1NC(=O)c1ccc(Br)cc1 obs_value="6.41 µM (active)"
molecule=CCOC(=O)C1=C(Nc2ccccc2)S/C(=C\c2cn(CC(=O)N3CCCC3)c3ccccc23)C1=O obs_value="47.5 µM (active)"
molecule=O=C(N/N=C/c1cc(Cl)cc([N+](=O)[O-])c1O)C(O)(c1ccccc1)c1ccccc1 obs_value="> 300 µM (not active)"
molecule=O=C1CCC/C(=N/NC(=O)c2sc3ccccc3c2Cl)C1 obs_value="22 µM (active)"

----------
Target: Carboxy-terminal domain RNA polymerase II polypeptide A small phosphatase 1 (Homo sapiens, UniProt Q9GZU7)
Sequence (Q9GZU7 whole entry, the tested form may be a part): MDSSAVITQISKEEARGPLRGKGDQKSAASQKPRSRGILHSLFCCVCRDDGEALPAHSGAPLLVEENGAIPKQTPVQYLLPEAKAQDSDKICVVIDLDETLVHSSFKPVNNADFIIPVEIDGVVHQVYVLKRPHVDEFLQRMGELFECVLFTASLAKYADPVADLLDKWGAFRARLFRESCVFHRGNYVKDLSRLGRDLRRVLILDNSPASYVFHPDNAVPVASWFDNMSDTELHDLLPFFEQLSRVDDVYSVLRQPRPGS
Assay: CTDSP1 inhibitors, concentration-response, biochemical, absorbance readout, ultra-high-throughput screen actives (AID 540297)
Type: functional
The source made the active and inactive calls.
Below: a set of entries, each annotated with reported IC50.
MEASUREMENT NAME: IC50

structure_as_smiles=O=C(COC(=O)c1ccc(Cl)c(S(=O)(=O)N2CCCCC2)c1)NCc1ccco1 obs_value="13.8 µM (active)"
structure_as_smiles=NS(=O)(=O)c1ccc(NC(=O)c2ccc(-c3ccccc3)cc2)cc1 obs_value="4.56 µM (active)"
structure_as_smiles=COc1ccc(OC)c([N+](=O)[O-])c1C(N)=O obs_value="3.49 µM (active)"
structure_as_smiles=Cc1ccc(NC(=O)CN(C)C(=O)c2cc(-c3ccco3)nc3ccccc23)cc1 obs_value="3.88 µM (active)"
structure_as_smiles=COc1ccc(CC(=O)Nc2ncc([N+](=O)[O-])s2)cc1OC obs_value="3.21 µM (active)"
structure_as_smiles=CCn1c(CNC(=O)COc2ccc(C(C)C)cc2)nnc1SCC(=O)Nc1cc(F)ccc1C obs_value="16.7 µM (active)"

----------
Below: a set of entries, each annotated with reported EC50.
Assay: fluconazole-exposed Candida albicans growth modulators – fluorescence, retest, confirmation (AID 2467)
Assay type: functional, cell-based
Active and inactive are the calls of the source.
MEASUREMENT NAME: EC50

compound=CCn1c(CSc2nc3ccccc3s2)nnc1SCC(=O)c1ccc(O)c(O)c1 obs_value="> 38000 nM (not active)"
compound="CCCC(=O)NC(c1ccccc1OC)c1ccc2cccnc2c1O (stereo not given)" obs_value="476 nM (active)"
compound=CCOc1ccc(-c2c(C)[n+](-c3ccc(OCC)cc3)c3n2CCCCC3)cc1.[O-][Cl+3]([O-])([O-])[O-] obs_value="2360 nM (active)"
compound=CCCCCCCn1c2c(c(=N)c3c1CCC3)CCCC2 obs_value="2790 nM (active)"
compound=Cc1ccc2[nH]c(/C(C#N)=C\c3ccc([N+](=O)[O-])o3)nc2c1 obs_value="387 nM (active)"
